- System under test: T1, QP271 (rhesus SIRPα1-flag-his T-557-28) (rhesus monkey)
- T1 construct: also called rhesus monkey SIRPα (QP271); monkeySIRPα1-flag-his
- T1 chain: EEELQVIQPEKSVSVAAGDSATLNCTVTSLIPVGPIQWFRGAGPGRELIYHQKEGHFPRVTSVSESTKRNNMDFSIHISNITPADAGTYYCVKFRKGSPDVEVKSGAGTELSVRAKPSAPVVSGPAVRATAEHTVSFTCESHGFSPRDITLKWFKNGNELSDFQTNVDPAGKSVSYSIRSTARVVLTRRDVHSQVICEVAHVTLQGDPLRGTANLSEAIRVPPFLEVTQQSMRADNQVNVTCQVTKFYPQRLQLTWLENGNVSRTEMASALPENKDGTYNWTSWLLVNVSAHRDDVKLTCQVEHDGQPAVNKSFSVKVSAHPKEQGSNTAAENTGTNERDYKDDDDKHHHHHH
- Assay explanation: binding ELISA, antigen coated
Readout type: EC50 (ng/mL)
Could you give me the number in ng/mL? Just the number is fine.

Recorded results for 5 binders are shown here.
Prompt: Please report EC50 for the following binder: QP2561770 (antibody, human IgG4, V domains shown, Human IgG4 heavy constant region and kappa CL) VH: QVQLVQSGAEVKKPGASVKVSCKASGYTFTNYWINWVRQAPGQGLEWIAMIDPSDSETHYNQIFKDRATLTTDTSTSTAYMELRSLRSDDTAVYYCAMDYGSLYAMDYWGRGTLVTVSS VL: DIVLTQSPDSLAVSLGERATINCRASQSVRSSGYNWIFWYQQKPGQPPKLLIYLASNRDSGVPDRFSGSGSGTDFTLTISSLQAEDVAVYYCQESRELPTFGQGTKLEIK
Completion: 1.21

Prompt: Please report EC50 for the following binder: QP256291 (antibody, human IgG4, V domains shown, Human IgG4 heavy constant region and kappa CL) VH: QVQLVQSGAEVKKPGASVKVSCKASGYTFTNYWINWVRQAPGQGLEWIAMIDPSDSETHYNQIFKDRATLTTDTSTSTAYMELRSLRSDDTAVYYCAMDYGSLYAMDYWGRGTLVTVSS VL: DIVLTQSPDSLAVSLGERATINCRASKSVGSSGYNWLFWYQQKPGQPPKLLIYLASNRDSGVPDRFSGSGSGTDFTLTISSLQAEDVAVYYCQHSRELPTFGQGTKLEIK
Completion: 1.17

Prompt: Please report EC50 for the following binder: QP2561586 (antibody, human IgG4, V domains shown, Human IgG4 heavy constant region and kappa CL) VH: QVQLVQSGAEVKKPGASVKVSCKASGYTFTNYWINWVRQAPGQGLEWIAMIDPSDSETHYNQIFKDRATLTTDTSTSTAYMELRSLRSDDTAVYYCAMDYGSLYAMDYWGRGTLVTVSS VL: DIVLTQSPDSLAVSLGERATINCRASKSVSSSGYNYIFWYQQKPGQPPKLLIYLASNLDSGVPDRFSGSGSGTDFTLTISSLQAEDVAVYYCQESRELPTFGQGTKLEIK
Completion: 0.967

Prompt: Please report EC50 for the following binder: QP2561581 (antibody, human IgG4, V domains shown, Human IgG4 heavy constant region and kappa CL) VH: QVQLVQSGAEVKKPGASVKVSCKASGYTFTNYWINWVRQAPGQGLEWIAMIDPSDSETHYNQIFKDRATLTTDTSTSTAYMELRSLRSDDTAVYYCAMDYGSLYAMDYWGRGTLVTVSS VL: DIVLTQSPDSLAVSLGERATINCRASKSVSSSGYNYIFWYQQKPGQPPKLLIYLASNLDPGVPDRFSGSGSGTDFTLTISSLQAEDVAVYYCQHSRELPTFGQGTKLEIK
Completion: 0.555

Prompt: Please report EC50 for the following binder: QP256253 (antibody, human IgG4, V domains shown, also called humanized antibody QP256253; QP163164 humanized clone) VH: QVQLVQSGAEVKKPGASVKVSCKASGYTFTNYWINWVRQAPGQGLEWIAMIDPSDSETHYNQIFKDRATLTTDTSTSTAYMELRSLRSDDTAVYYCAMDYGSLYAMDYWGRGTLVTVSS VL: DIVLTQSPDSLAVSLGERATINCRASKSVSSSGYNYIFWYQQKPGQPPKLLIYLASNLDSGVPDRFSGSGSGTDFTLTISSLQAEDVAVYYCQHSRELPTFGQGTKLEIK
Completion: 0.947

In the following, a different binder is considered.
Prompt: Please report EC50 for the following binder: QP2561594 (antibody, human IgG4, V domains shown, Human IgG4 heavy constant region and kappa CL) VH: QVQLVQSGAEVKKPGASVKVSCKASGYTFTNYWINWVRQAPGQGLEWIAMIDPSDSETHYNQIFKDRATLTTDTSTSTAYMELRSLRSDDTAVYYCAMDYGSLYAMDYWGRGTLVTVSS VL: DIVLTQSPDSLAVSLGERATINCRASKSVSSSGYNYIFWYQQKPGQPPKLLIYLASNLDSGVPDRFSGSGSGTDFTLTISSLQAEDVAVYYCQHSRDLPTFGQGTKLEIK
Completion: 0.807

meta.source: patent US20250326840A1
